- procedure.summary: Suspension equilibration of sorbate salt at 20 and 40° C. (Example 10, Experiments 3, 4, 9)
- Format: physicochemical
- condition.set: sorbate salt Form A in 5 vol solvent, one solvent per sample; 20° C.; t = 1 d
property.measured: Observations (t = 1 d @ 20° C.)

1. CC=CC=CC(=O)O.COc1ccc2c3c([nH]c2c1)CCN(C)CC3 [Experiment 3-Sample B]	Suspension
2. CC=CC=CC(=O)O.COc1ccc2c3c([nH]c2c1)CCN(C)CC3 [Experiment 3-Sample M]	Suspension
3. CC=CC=CC(=O)O.COc1ccc2c3c([nH]c2c1)CCN(C)CC3 [Experiment 3-Sample L]	Suspension

* * *

- procedure.summary: Heat-up/cool-down crystallisation screen of sorbate salt (Example 10, Experiments 5, 8)
- Type: physicochemical
- condition.set: Experiment 5; Tabernanthalog sorbate salt (Form A) crystallised from binary solvents, solvent A 3.0 vol plus solvent B, one pair per sample
property.measured: Observations (t = 1 @ T = 20° C.)

Reference set, count: 5
1. CC=CC=CC(=O)O.COc1ccc2c3c([nH]c2c1)CCN(C)CC3 [Experiment 5-Sample H]	Partial
2. C/C=C/C=C/C(=O)O.COc1ccc2c3c([nH]c2c1)CCN(C)CC3 [Experiment 5-Sample F]	Partial
3. C/C=C/C=C/C(=O)O.COc1ccc2c3c([nH]c2c1)CCN(C)CC3 [Experiment 5-Sample C]	Solid
4. CC=CC=CC(=O)O.COc1ccc2c3c([nH]c2c1)CCN(C)CC3 [Experiment 5-Sample K]	Partial
5. CC=CC=CC(=O)O.COc1ccc2c3c([nH]c2c1)CCN(C)CC3 [Experiment 5-Sample A]	Partial

Give reported Observations (t = 1 @ T = 20° C.) value for C/C=C/C=C/C(=O)O.COc1ccc2c3c([nH]c2c1)CCN(C)CC3 [Experiment 5-Sample E] Partial

Give reported Observations (t = 1 @ T = 20° C.) value for CC=CC=CC(=O)O.COc1ccc2c3c([nH]c2c1)CCN(C)CC3 [Experiment 5-Sample B] Solid

* * *

- procedure.summary: Qualitative solubility screen of Tabernanthalog sorbate salt (Example 10, Experiment 2)
- Assay type: physicochemical
- condition.set: Tabernanthalog sorbate salt (input Form A); same pellets dried under reduced pressure; one solvent per sample
property.measured: Assignment (dry pellet XRPD)

Reference set, count: 6
1) CC=CC=CC(=O)O.COc1ccc2c3c([nH]c2c1)CCN(C)CC3 [Experiment 2-Sample Q1]	Form A
2) CC=CC=CC(=O)O.COc1ccc2c3c([nH]c2c1)CCN(C)CC3 [Experiment 2-Sample R1]	Form A
3) C/C=C/C=C/C(=O)O.COc1ccc2c3c([nH]c2c1)CCN(C)CC3	Form A
4) CC=CC=CC(=O)O.COc1ccc2c3c([nH]c2c1)CCN(C)CC3 [Experiment 2-Sample P1]	Form A
5) CC=CC=CC(=O)O.COc1ccc2c3c([nH]c2c1)CCN(C)CC3 [Experiment 2-Sample G1]	Form A
6) CC=CC=CC(=O)O.COc1ccc2c3c([nH]c2c1)CCN(C)CC3 [Experiment 2-Sample L1]	Form A

Please look at the following compound next.
Give reported Assignment (dry pellet XRPD) value for CC=CC=CC(=O)O.COc1ccc2c3c([nH]c2c1)CCN(C)CC3 [Experiment 2-Sample J1] Form A

* * *

- procedure.summary: Solubility determinations in SIF buffers FaSSIF, FeSSIF, FaSSGF (Example 8, Experiment 5)
- condition.set: 37 °C, pH 5, fessif, thermodynamic from solid
- Description: The temperature was maintained at 37° C. for 24 h. […] The suspensions were sampled at the relevant time points and centrifuged. The centrifuged pellets, obtained at the time points were analysed by XRPD as a wet pellet and dried, for evidence of form change. […] The suspension was sampled at the relevant time points and centrifuged. […] The centrifuged pellets, obtained at the time points were analyzed by XRPD as a wet pellet and dried, for evidence of form change.
property.measured: solubility at 6 h

Give reported solubility at 6 h value for COc1ccc2c3c([nH]c2c1)CCN(C)CC3 [Tabernanthalog• Sorbate] > 30 mg/mL

* * *

- procedure.summary: Solubility determinations in SIF buffers FaSSIF, FeSSIF, FaSSGF (Example 8, Experiment 5)
- condition.set: 37 °C, pH 1.6, fassgf or other biorelevant, thermodynamic from solid
property.measured: solubility at 1 h

Give reported solubility at 1 h value for COc1ccc2c3c([nH]c2c1)CCN(C)CC3 [Tabernanthalog• Sorbate] 21.9 mg/mL

* * *

Give measured melt onset for each item. Keep answers brief.
- procedure.summary: Examination of variability of fusion temperature of sorbate Form A (DSC)
- Format: physicochemical
- condition.set: DSC 25-220° C. at 10° C. min^−1; batches of sorbate salt Form A
Express the result in °C but write the number alone.

Give reported melt onset value for C/C=C/C=C/C(=O)O.COc1ccc2c3c([nH]c2c1)CCN(C)CC3 [Pattern A1270-20-V2] 143.9

Give reported melt onset value for C/C=C/C=C/C(=O)O.COc1ccc2c3c([nH]c2c1)CCN(C)CC3 [Experiment 6-Sample D1] 144.0

Give reported melt onset value for C/C=C/C=C/C(=O)O.COc1ccc2c3c([nH]c2c1)CCN(C)CC3 [Experiment 6-Sample C1] 144.7

Give reported melt onset value for C/C=C/C=C/C(=O)O.COc1ccc2c3c([nH]c2c1)CCN(C)CC3 [Experiment 6-Sample E1] 145.0

Give reported melt onset value for C/C=C/C=C/C(=O)O.COc1ccc2c3c([nH]c2c1)CCN(C)CC3 [Experiment 7-Sample A neat] 144.4

* * *

- procedure.summary: Solubility determinations in SIF buffers FaSSIF, FeSSIF, FaSSGF (Example 8, Experiment 5)
- condition.set: 37 °C, pH 5, fessif, thermodynamic from solid
property.measured: solubility at 3 h

Give reported solubility at 3 h value for COc1ccc2c3c([nH]c2c1)CCN(C)CC3 [Tabernanthalog• Sorbate] > 30 mg/mL

* * *

Give measured Endset for each item. Keep answers brief.
- procedure.summary: Examination of variability of fusion temperature of sorbate Form A (DSC)
- Assay type: physicochemical
- condition.set: DSC 25-220° C. at 10° C. min^−1; batches of sorbate salt Form A
Express the result in °C but write the number alone.

Give reported Endset value for C/C=C/C=C/C(=O)O.COc1ccc2c3c([nH]c2c1)CCN(C)CC3 [Experiment 6-Sample C1] 151.0

Give reported Endset value for C/C=C/C=C/C(=O)O.COc1ccc2c3c([nH]c2c1)CCN(C)CC3 [Experiment 6-Sample D1] 150.2

Give reported Endset value for C/C=C/C=C/C(=O)O.COc1ccc2c3c([nH]c2c1)CCN(C)CC3 [Experiment 6-Sample E1] 151.6

Give reported Endset value for C/C=C/C=C/C(=O)O.COc1ccc2c3c([nH]c2c1)CCN(C)CC3 [Experiment 7-Sample A neat] 148.5

Give reported Endset value for C/C=C/C=C/C(=O)O.COc1ccc2c3c([nH]c2c1)CCN(C)CC3 [Pattern A1270-20-V2] 152.0

* * *

- procedure.summary: Solubility determinations in SIF buffers FaSSIF, FeSSIF, FaSSGF (Example 8, Experiment 5)
- condition.set: 37 °C, pH 1.6, fassgf or other biorelevant, thermodynamic from solid
property.measured: solubility at 6 h (mg/mL)
Express the result in mg/mL but write the number alone.

Give reported solubility at 6 h value for COc1ccc2c3c([nH]c2c1)CCN(C)CC3 [Tabernanthalog• Sorbate] 30.3

* * *

- procedure.summary: Binary solvent evaporation crystallisation of sorbate salt (Example 10, Experiment 6)
- Format: physicochemical
- condition.set: sorbate salt Form A evaporated from MeOH (10 vol) plus solvent B (5 vol), one solvent B per sample
property.measured: XRPD (dried under nitrogen)

1) C/C=C/C=C/C(=O)O.COc1ccc2c3c([nH]c2c1)CCN(C)CC3 [Experiment 6-Sample D]	Form A
2) CC=CC=CC(=O)O.COc1ccc2c3c([nH]c2c1)CCN(C)CC3 [Experiment 6-Sample C]	Form A
3) C/C=C/C=C/C(=O)O.COc1ccc2c3c([nH]c2c1)CCN(C)CC3 [Experiment 6-Sample E]	Form A

* * *

- procedure.summary: Qualitative solubility screen of the tabernanthalog monofumarate salt in solvents (Example 5, Experiment Reference 1; Example 2)
- Type: physicochemical
- condition.set: water; methanol (two separate solvents), water, thermodynamic from solid; reflux; read-out: soluble in methanol/water at reflux
Where a name gives a salt, the structure may show the parent alone.
property.measured: solubility

Give reported solubility value for COc1ccc2c3c([nH]c2c1)CCN(C)CC3 [tabernanthalog monofumarate salt] ≥ 200 mg/mL

* * *

- procedure.summary: Examination of variability of fusion temperature of sorbate Form A (DSC)
- Format: physicochemical
- condition.set: DSC melt peak, 25 to 220C at 10° C. min−1; tabernanthalog sorbate Form A samples
property.measured: peak (°C)
Express the result in °C but write the number alone.

Give reported peak value for C/C=C/C=C/C(=O)O.COc1ccc2c3c([nH]c2c1)CCN(C)CC3 [Pattern A1270-20-V2] 148.83

Give reported peak value for C/C=C/C=C/C(=O)O.COc1ccc2c3c([nH]c2c1)CCN(C)CC3 [Experiment 6-Sample E1] 148.83

Give reported peak value for C/C=C/C=C/C(=O)O.COc1ccc2c3c([nH]c2c1)CCN(C)CC3 [Experiment 7-Sample A neat] 146.83

Give reported peak value for C/C=C/C=C/C(=O)O.COc1ccc2c3c([nH]c2c1)CCN(C)CC3 [Experiment 6-Sample C1] 148.83

Give reported peak value for C/C=C/C=C/C(=O)O.COc1ccc2c3c([nH]c2c1)CCN(C)CC3 [Experiment 6-Sample D1] 148.00

Provenance of the data: patent US20230257385A1
